Where do the numbers come from? From ChEMBL document CHEMBL5244235.

// reported IC50 per item
- Tested on: HCT-116
- assay-overview: Antiproliferative activity against human HCT116 cells assessed as cell growth inhibition measured after 96 hrs
- Type: functional, cell-based
- conditions-used: HCT-116, 96 h

// solved cases for IC50 follow
Per the records, this compound ( COc1ccc(/C=C/C(=O)/C=C/c2ccc(OC)c(OC)c2)cc1OC ) has IC50 equal to 1500 nM

Per the records, this compound ( COCOc1c(OC)cc(/C=C/C(=O)/C=C/c2cc(OC)c(OCOC)c(OC)c2)cc1OC ) has IC50 equal to 250 nM

// next entry
Per the records, this compound ( COc1cc(/C=C/C(=O)/C=C/c2cc(OC)c(OC)c(OC)c2)cc(OC)c1OC ) has IC50 equal to 250 nM

---

- System: A549
- assay-overview: Antiproliferative activity against human A549 cells assessed as cell growth inhibition measured after 48 hrs by MTT assay
- Format: functional, cell-based
- conditions-used: A549, 48 h
measured-endpoint: IC50

# IC50 measured on A549 for item O=C1/C(=C/c2ccccc2F)CCC/C1=C\c1ccccc1F = 30.5 µM

---

- assay-overview: Antiproliferative activity against human SH-10-TC cells assessed as cell growth inhibition measured after 72 hrs
- Assay type: functional, cell-based
measured-endpoint: pIC50
// scale note: pIC50 = -log10(conc_M); give the bare number

// solved cases for pIC50 follow
Per the records, this molecule ( CCOC(C)Oc1cccc(/C=C/C(=O)/C=C/c2cc(OC)c(OC)c(OC)c2)c1 (centres undefined) ) has pIC50 equal to 6.00

Per the records, this molecule ( COc1ccc(/C=C2\CCC/C(=C\c3ccc(OC)c(OC)c3)C2=O)cc1OC ) has pIC50 equal to 5.00

Per the records, this molecule ( CCOC(C)COc1c(OC)cc(/C=C/C(=O)/C=C/c2cc(OC)c(OC)c(OC)c2)cc1OC (centres undefined) ) has pIC50 equal to 6.00

Per the records, this molecule ( COc1cc(/C=C/C(=O)/C=C/c2cc(OC)c(OC)c(OC)c2)cc(OC)c1O ) has pIC50 equal to 6.00

// next entry
Per the records, this molecule ( COc1cc(/C=C/C(=O)/C=C/c2cccc(O)c2)cc(OC)c1OC ) has pIC50 equal to 6.00

---

- assay-overview: Cytotoxicity against mouse MS-1 cells assessed as cell growth inhibition by anti-angiogenisis screening assay
- Format: toxicity, cell-based
// reported GI50 per item
Report the value in µM with no unit label.

// solved cases for GI50 follow
Per the records, this compound ( O=C(/C=C/c1ccccc1O)/C=C/c1ccccc1O ) has GI50 equal to 1.8

Per the records, this compound ( O=C(/C=C/c1cccc(O)c1)/C=C/c1cccc(O)c1 ) has GI50 equal to 3.2

Per the records, this compound ( O=C(/C=C/c1ccc(O)cc1)/C=C/c1ccc(O)cc1 ) has GI50 equal to 3.2

More entries:
Per the records, this compound ( O=C(/C=C/c1ccccc1F)/C=C/c1ccccc1F ) has GI50 equal to 6.1

---

- Tested on: SVR
- assay-overview: Anti-angiogenesis activity in mouse SVR cells assessed as cell growth inhibition
- Assay type: functional, cell-based
measured-endpoint: pIC50
// scale note: pIC50 = -log10(conc_M); give the bare number

# pIC50 measured on SVR for item CN1C/C(=C\c2ccccc2O)C(=O)/C(=C/c2ccccc2O)C1 = 5.96

---

// reported IC50 per item
- Test system: PC-3
- assay-overview: Antiproliferative activity against human PC-3 cells assessed as cell growth inhibition measured after 72 hrs
- Assay type: functional, cell-based
- conditions-used: PC-3, 72 h
Report the value in µM with no unit label.

// solved cases for IC50 follow
Per the records, this molecule ( COc1cc(/C=C/C(=O)/C=C/c2cccc(O)c2)cc(OC)c1OC ) has IC50 equal to 1

Per the records, this molecule ( CCOC(C)Oc1cccc(/C=C/C(=O)/C=C/c2cc(OC)c(OC)c(OC)c2)c1 (centres undefined) ) has IC50 equal to 1

Per the records, this molecule ( COc1ccc(/C=C2\CCC/C(=C\c3ccc(OC)c(OC)c3)C2=O)cc1OC ) has IC50 equal to 10

Per the records, this molecule ( COc1cc(/C=C/C(=O)/C=C/c2cc(OC)c(OC)c(OC)c2)cc(OC)c1O ) has IC50 equal to 1

// next entry
Per the records, this molecule ( CCOC(C)COc1c(OC)cc(/C=C/C(=O)/C=C/c2cc(OC)c(OC)c(OC)c2)cc1OC (centres undefined) ) has IC50 equal to 1

---

- assay-overview: Cytotoxicity against mouse SVR cells assessed as cell growth inhibition by anti-angiogenisis screening assay
- Format: toxicity, cell-based
measured-endpoint: GI50
Quick note: number first, unit second.

Per the records, this compound ( O=C(/C=C/c1cccc(O)c1)/C=C/c1cccc(O)c1 ) has GI50 equal to 3.2 µM

More entries:
Per the records, this compound ( O=C(/C=C/c1ccccc1F)/C=C/c1ccccc1F ) has GI50 equal to 6.1 µM

Per the records, this compound ( O=C(/C=C/c1ccc(O)cc1)/C=C/c1ccc(O)cc1 ) has GI50 equal to 3.2 µM

Per the records, this compound ( O=C(/C=C/c1ccccc1O)/C=C/c1ccccc1O ) has GI50 equal to 1.8 µM

---

- assay-overview: Cytotoxicity activity against mouse SVR cells assessed as cell growth inhibition at 3 ug/ml relative to control
- Type: toxicity, cell-based
- conditions-used: at 3 µg/mL
measured-endpoint: inhibition at 3 ug/ml (%)
Report the value in % with no unit label.

Per the records, this molecule ( O=C1/C(=C/c2ccccn2)CCC/C1=C\c1ccccn1 ) has inhibition at 3 ug/ml equal to 90.1

---

- Test system: LS174T
- assay-overview: Antiproliferative activity against human LS174T cells assessed as cell growth inhibition by MTT assay
- Type: functional, cell-based
measured-endpoint: IC50
Quick note: number first, unit second.

# IC50 measured on LS174T for item COc1cc(/C=C/C(=O)/C=C/c2ccc(O)c(OC)c2)ccc1O = 3.7 µM

---

- assay-overview: Antiproliferative activity against human Molt 4/C8 cells assessed as cell growth inhibition
- Format: functional, cell-based
- conditions-used: Molt4/C8
// reported pIC50 per item
// scale note: pIC50 = -log10(conc_M); give the bare number

// solved cases for pIC50 follow
Per the records, this compound ( C=CC(=O)N1C/C(=C\c2ccc(OC)cc2)C(=O)/C(=C/c2ccc(OC)cc2)C1 ) has pIC50 equal to 6.55

Per the records, this compound ( C=CC(=O)N1C/C(=C\c2ccccc2)C(=O)/C(=C/c2ccccc2)C1 ) has pIC50 equal to 6.55

More entries:
Per the records, this compound ( O=C1/C(=C/c2ccccc2)CN(C(=O)/C=C/c2ccccc2)C/C1=C\c1ccccc1 ) has pIC50 equal to 5.80

Per the records, this compound ( Cc1ccc(C(=O)/C=C/c2ccc(C(=O)N3C/C(=C\c4ccccc4)C(=O)/C(=C/c4ccccc4)C3)cc2)cc1C ) has pIC50 equal to 5.80

Per the records, this compound ( O=C1/C(=C/c2ccc(Cl)cc2)CNC/C1=C\c1ccc(Cl)cc1 ) has pIC50 equal to 6.09

Per the records, this compound ( O=C1/C(=C/c2ccccc2)CN(C(=O)c2ccc(/C=C/C(=O)c3ccc(O)cc3)cc2)C/C1=C\c1ccccc1 ) has pIC50 equal to 5.80

Per the records, this compound ( C=CC(=O)N1C/C(=C\c2ccc(F)cc2)C(=O)/C(=C/c2ccc(F)cc2)C1 ) has pIC50 equal to 6.55

Per the records, this compound ( O=C1/C(=C/c2ccccc2)CN(C(=O)/C=C/c2ccc(Cl)c(Cl)c2)C/C1=C\c1ccccc1 ) has pIC50 equal to 5.80

Per the records, this compound ( Cc1ccc(/C=C/C(=O)N2C/C(=C\c3ccccc3)C(=O)/C(=C/c3ccccc3)C2)cc1 ) has pIC50 equal to 5.80

---

- assay-overview: Antiproliferative activity against human Molt 4/C8 cells assessed as cell growth inhibition
- Type: functional, cell-based
- conditions-used: Molt4/C8
// reported pIC50 per item
// scale note: pIC50 = -log10(conc_M); give the bare number

// solved cases for pIC50 follow
Per the records, this compound ( C=CC(=O)N1C/C(=C\c2ccc([N+](=O)[O-])cc2)C(=O)/C(=C/c2ccc([N+](=O)[O-])cc2)C1 ) has pIC50 equal to 6.55

Per the records, this compound ( C=CC(=O)N1C/C(=C\c2ccc(N(C)C)cc2)C(=O)/C(=C/c2ccc(N(C)C)cc2)C1 ) has pIC50 equal to 6.55

Per the records, this compound ( O=C1/C(=C/c2ccccc2)CN(C(=O)c2ccc(/C=C/C(=O)c3ccccc3)cc2)C/C1=C\c1ccccc1 ) has pIC50 equal to 5.80

Per the records, this compound ( COc1ccc(/C=C/C(=O)N2C/C(=C\c3ccccc3)C(=O)/C(=C/c3ccccc3)C2)cc1 ) has pIC50 equal to 5.80

Per the records, this compound ( COc1ccc(C(=O)/C=C/c2ccc(C(=O)N3C/C(=C\c4ccccc4)C(=O)/C(=C/c4ccccc4)C3)cc2)cc1 ) has pIC50 equal to 5.80

More entries:
Per the records, this compound ( O=C1/C(=C/c2ccc(F)cc2)CNC/C1=C\c1ccc(F)cc1 ) has pIC50 equal to 6.09
